- System: Escherichia coli
- experiment: Antibacterial activity against Escherichia coli MTCC 1089 assessed as growth inhibition after 18 hr by broth microdilution method
- Format: functional
- measurementParameters: MTCC 1089, 18 h
valueKind: MIC (µg/mL)
Report the value in µg/mL with no unit label.

Please give the measured MIC for this compound: O=C(CSc1nnc(N2CCN(c3cc4c(cc3F)c(=O)c(C(=O)O)cn4C3CC3)CC2)s1)c1ccccc1
32

Please give the measured MIC for this compound: O=C(CSc1nnc(N2CCN(c3cc4c(cc3F)c(=O)c(C(=O)O)cn4C3CC3)CC2)s1)c1ccc(Br)cc1
16

Please give the measured MIC for this compound: O=C(CSc1nnc(N2CCN(c3cc4c(cc3F)c(=O)c(C(=O)O)cn4C3CC3)CC2)s1)c1ccc(F)cc1
16

Numbers sourced from ChEMBL document CHEMBL3045188.
